Experiment: Caco-2 membrane permeability assay
Format: in vitro ADME
Settings: human, Caco-2, pH 7.4, with Pgp inhibitor (name and concentration not stated), A to B, with Pgp inhibitor, pH 7.4, 2 h; read-out: Caco-2 Papp AB with Pgp inhibitor
Answer each item with its documented Papp A→B at 2 h, 10 µM.
Phrase the answer as number then unit, nothing more needed.

Cn1cc2c3nc(ncc31)Nc1cnn(c1)CCCNC(=O)COc1ccc-2cc1 :: 22.8 ×10⁻⁶ cm/s

Pending compound:
[in] Return reported Papp A→B at 2 h, 10 µM. Input compound: `O=C1COc2ccc(cc2)Nc2ccnc(n2)Nc2cnn(c2)CCCN1`
[out] 5.5 ×10⁻⁶ cm/s

====

Answer each item with its documented log kW^IAM.
Assay: log kW IAM (immobilized artificial membrane chromatography)
Format: physicochemical
Conditions: lipophilicity descriptor, phospholipid interaction
Give bare numbers.

Some compounds with recorded log kW^IAM:
O=C1COc2ccc(cc2)Nc2ccnc(n2)Nc2cnn(c2)CCCN1 :: 1.53
Cn1cc2c3nc(ncc31)Nc1cnn(c1)CCCNC(=O)COc1ccc-2cc1 :: 1.87
Cn1cc2c3nc(ncc31)Nc1cnn(c1)CCCNCCOc1ccc-2cc1 :: 2.33
c1cc2nc(n1)Nc1cnn(c1)CCCNCCOc1ccc(cc1)N2 :: 1.96

Pending compound:
[in] Return reported log kW^IAM. Input compound: `Cc1ccc(C(=O)Nc2cccc(C(F)(F)F)c2)cc1-c1cc2nc(Nc3cnn(C)c3)ncc2[nH]1`
[out] 2.53

====

Experiment: ChromLogD chromatographic lipophilicity
Type: physicochemical
Settings: C18 column, pH 7.4
quantityMeasured: chromatographic logD
Answers are plain numbers.

Some compounds with recorded chromatographic logD:
Cn1cc2c3nc(ncc31)Nc1cnn(c1)CCCNCCOc1ccc-2cc1 :: 1.75
Cn1cc2c3nc(ncc31)Nc1cnn(c1)CCCNC(=O)COc1ccc-2cc1 :: 1.52
Cc1ccc(C(=O)Nc2cccc(C(F)(F)F)c2)cc1-c1cc2nc(Nc3cnn(C)c3)ncc2[nH]1 :: 2.92
O=C1COc2ccc(cc2)Nc2ccnc(n2)Nc2cnn(c2)CCCN1 :: 1.17

Pending compound:
[in] Return reported chromatographic logD. Input compound: `c1cc2nc(n1)Nc1cnn(c1)CCCNCCOc1ccc(cc1)N2`
[out] 1.15

====

Test: Kinetic solubility
Assay type: physicochemical
Settings: phosphate buffered saline; PBS pH 7.4, 2% DMSO, 2 h room temperature; assay range 5-200 µM; read-out: KS (kinetic solubility)
quantityMeasured: solubility kinetic at 2 h (µM)
Give bare numbers, in µM.

Some molecules with recorded solubility kinetic at 2 h:
Cn1cc2c3nc(ncc31)Nc1cnn(c1)CCCNCCOc1ccc-2cc1 :: 20
O=C1COc2ccc(cc2)Nc2ccnc(n2)Nc2cnn(c2)CCCN1 :: 198
Cn1cc2c3nc(ncc31)Nc1cnn(c1)CCCNC(=O)COc1ccc-2cc1 :: 16

Pending molecule:
[in] Return reported solubility kinetic at 2 h. Input molecule: `c1cc2nc(n1)Nc1cnn(c1)CCCNCCOc1ccc(cc1)N2`
[out] 188

====

Test: Kinetic solubility
Type: physicochemical
quantityMeasured: kinetic solubility (in words)

O=C1COc2ccc(cc2)Nc2ccnc(n2)Nc2cnn(c2)CCCN1 :: highly soluble
Cn1cc2c3nc(ncc31)Nc1cnn(c1)CCCNCCOc1ccc-2cc1 :: less soluble
c1cc2nc(n1)Nc1cnn(c1)CCCNCCOc1ccc(cc1)N2 :: highly soluble
Cn1cc2c3nc(ncc31)Nc1cnn(c1)CCCNC(=O)COc1ccc-2cc1 :: less soluble
